test: Acute toxicity in mice, determined as LD50
condition_set: in vivo, sc; mouse, S.C., observed 72 hours
Counter-ions that a name gives are not always drawn.
recorded_endpoint: LD50 at 72 h (mg/kg)
Answers are plain numbers, in mg/kg.

                                   compound  endpoint_value
0  COc1ccc2c3c1O[C@H]1[C@@H](O)C=C[C@H]4[C@@H](C2)N(C)CC[C@@]341 [Codeine phosphate, reference compound]             191

Now, please, on to the next compound.
Looking up C=CCOc1cc(Cl)ccc1C(=O)CCN1CCCCC1 [Hydrochloride] , I see its LD50 at 72 h listed as 105
